Provenance of the data: patent US8546447B2

- Tested on: Propionibacterium acnes (P. acnes)
- TEST_METHOD_NOTES: Dark toxicity of ALA esters in P. acnes (survival assay, colony forming ability)
- Format: cell-based
- COND: 4 mM, 4 hours in the dark at 37° C.
MEASURE: % CFU (mean normalised colony-forming units) (%)
Give a bare numeral; the unit % is implied.

MOLECULE | UNITS_SYMBOL | TEST_RESULT
NCC(=O)CCC(=O)OCc1ccc(Cl)cc1 [4-chlorobenzyl, 4-chlorobenzyl ALA ester] | % | 3.7
CC(C)CCCOC(=O)CCC(=O)CN [4-methylpentyl, 4-methylpentyl ALA ester] | % | 37.3
Cc1ccccc1COC(=O)CCC(=O)CN [2-methylbenzyl, 2-methylbenzyl ALA ester] | % | 1.2
COCCOC(=O)CCC(=O)CN [2-methoxyethyl, 2-methoxyethyl 5-aminolevulinate] | % | 60.8
NCC(=O)CCC(=O)OCc1ccccc1 [Benzyl, benzyl 5-aminolevulinate] | % | 62.9

Now turn to the next molecule.
What reported % CFU (mean normalised colony-forming units) corresponds to NCC(=O)CCC(=O)OCc1ccc([N+](=O)[O-])cc1 [4-nitrobenzyl, 4-nitrobenzyl ALA ester] on Propionibacterium acnes (P. acnes)?
61.8
